Source listed as patent US20250009745A1.

We begin with a simple list: items and their reported IC50.
Molecular target: CDK2 (Homo sapiens, UniProt P24941)
Construct: purchased Carna Company
Experiment: CDK enzymology experiment in vitro, capillary mobility shift assay (MSA)
Assay type: biochemical
Conditions: read-out: CDK2 (nM) inhibitory IC50

Past entries and their recorded results:
> print(dat)
                                   molecule  assay.readout  observed.measurement
1  Cn1cc(S(=O)(=O)N2CCC(Nc3ncc(C#N)c(N[C@@H]4CC[C@H](O)C4)n3)CC2)cn1 (single isomer, unassigned)           IC50          2.5 to 10 nM
2  Cn1cc(S(=O)(=O)N2CCC(Nc3ncc(C#N)c(N[C@@H]4CCOC4)n3)CC2)cn1           IC50           10 to 50 nM
3  N#Cc1cnc(NC2CCN(S(=O)(=O)c3ccc(N4CCOCC4)cc3)CC2)nc1NC1CCCC1           IC50         0.5 to 2.5 nM
4  O=S(=O)(c1ccc(N2CCNCC2)cn1)N1CCC(Nc2ncc(C(F)(F)F)c(O[C@H]3CCOC3)n2)CC1           IC50              < 0.5 nM
5  O=S(=O)(c1ccc(C2CCNCC2)c(F)c1)N1CCC(Nc2ncc(C(F)(F)F)c(O[C@H]3CCOC3)n2)CC1           IC50              < 0.5 nM
6  Cn1ccc(S(=O)(=O)N2CCC(Nc3ncc(C#N)c(NC4CCCC4)n3)CC2)n1           IC50          2.5 to 10 nM

Notebook: `Cn1cc(S(=O)(=O)N2CCC(Nc3ncc(C#N)c(OC4CCCC4)n3)CC2)cn1` , IC50 read as < 0.5 nM

For this molecule ( Cn1cc(S(=O)(=O)N2CCC(Nc3ncc(C#N)c(N[C@H]4CC[C@H](O)C4)n3)CC2)cn1 (single isomer, unassigned) ), measured IC50 is 2.5 to 10 nM

Note to self: IC50 recorded for `O=S(=O)(c1ccc(C2=CCNCC2)nc1)N1CCC(Nc2ncc(C(F)(F)F)c(O[C@H]3CCOC3)n2)CC1` was < 0.5 nM

Entry `C[C@H]1CN(c2ccc(S(=O)(=O)N3CCC(Nc4ncc(C(F)(F)F)c(O[C@H]5CCOC5)n4)CC3)cn2)CCN1` ; IC50 = < 0.5 nM

###

Molecular target: CDK6 (Homo sapiens, UniProt Q00534)
Construct: purchased Carna Company
Sequence (Q00534 whole entry): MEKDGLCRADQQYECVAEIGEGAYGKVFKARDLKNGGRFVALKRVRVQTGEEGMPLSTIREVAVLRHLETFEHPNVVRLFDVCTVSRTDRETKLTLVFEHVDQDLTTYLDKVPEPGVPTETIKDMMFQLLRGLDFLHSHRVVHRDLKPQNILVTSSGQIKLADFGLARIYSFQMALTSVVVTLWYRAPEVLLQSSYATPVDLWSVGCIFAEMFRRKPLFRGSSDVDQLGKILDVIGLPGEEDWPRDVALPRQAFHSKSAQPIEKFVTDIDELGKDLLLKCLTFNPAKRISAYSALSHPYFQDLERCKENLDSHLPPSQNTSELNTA
Sequence (P30281 whole entry partner): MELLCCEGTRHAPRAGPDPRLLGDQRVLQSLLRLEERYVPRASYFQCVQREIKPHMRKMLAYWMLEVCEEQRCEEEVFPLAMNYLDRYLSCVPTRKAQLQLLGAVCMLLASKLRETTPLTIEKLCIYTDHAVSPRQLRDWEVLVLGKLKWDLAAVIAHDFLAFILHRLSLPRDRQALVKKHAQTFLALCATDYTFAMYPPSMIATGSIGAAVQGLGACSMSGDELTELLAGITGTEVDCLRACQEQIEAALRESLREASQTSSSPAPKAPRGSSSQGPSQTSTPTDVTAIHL
Assay: CDK enzymology experiment in vitro, capillary mobility shift assay (MSA)
Type: biochemical
Conditions: read-out: CDK6 (nM) inhibitory IC50
assay-readout: IC50

A selection of reference data follows.
> print(dat)
                                   compound  observed.measurement
1  O=S(=O)(c1ccc(C2CCNCC2)cc1)N1CCC(Nc2ncc(C(F)(F)F)c(NC3CCCC3(F)F)n2)CC1 (stereo not drawn)         0.5 to 2.5 nM
2  Cn1cc(S(=O)(=O)N2CCC(Nc3ncc(C#N)c(N[C@H]4CC[C@@H](O)C4)n3)CC2)cn1 (racemic)           10 to 50 nM

Fill in: CDK6 (Homo sapiens, UniProt Q00534) IC50 for `C[C@@H]1CN(c2ccc(S(=O)(=O)N3CCC(Nc4ncc(C(F)(F)F)c(O[C@H]5CCOC5)n4)CC3)cc2)CCN1` = 0.5 to 2.5 nM

Reported IC50 (CDK6 (Homo sapiens, UniProt Q00534)) for entry `C[C@H]1CN(c2ccc(S(=O)(=O)N3CCC(Nc4ncc(C(F)(F)F)c(O[C@H]5CCOC5)n4)CC3)cc2)CCN1` is 0.5 to 2.5 nM

Noted IC50 for `Cn1cc(S(=O)(=O)N2CCC(Nc3ncc(C#N)c(NC4CCCC4)n3)CC2)cn1` , tested on CDK6 (Homo sapiens, UniProt Q00534): 0.5 to 2.5 nM

Sample `Nc1ccc(S(=O)(=O)N2CCC(Nc3ncc(C(F)(F)F)c(O[C@H]4CCOC4)n3)CC2)cn1` , system: CDK6 (Homo sapiens, UniProt Q00534). Its IC50 is 10 to 50 nM
